The measured values listed here are drawn from paper PMC9841532.

target: UniProt P30542; assay: Radioligand binding competition, [3H]DPCPX, membranes from CHO-A1 cells; details: 1 μM, [3H]DPCPX, human CHO cells, n = 2
Property name: % at 1 μM hA1 (percentage displacement of specific binding) (%)

{"Molecule": "CC1=C(C(=O)OC(C)C)[C@@H](c2ccco2)n2c(nc3ccccc32)N1 [(S)-ISAM-140]", "Units": "%", "Reported": 2}
{"Molecule": "CC1=C(C(=O)OC(C)C)C(c2ccoc2)n2c(nc3cc(Br)c(Br)cc32)N1 (stereo not shown) [14t]", "Units": "%", "Reported": 1}
{"Molecule": "CCOC(=O)C1=C(C)Nc2nc3ccc(Br)cc3n2C1c1ccoc1 (stereo not shown) [15s]", "Units": "%", "Reported": 10}
{"Molecule": "CCOC(=O)C1=C(C)Nc2nc3cc(Br)ccc3n2C1c1ccco1 (stereo not shown) [16q]", "Units": "%", "Reported": 18}
{"Molecule": "CC1=C(C(=O)OC(C)C)C(c2ccco2)n2c(nc3cc(F)c(F)cc32)N1 (stereo not shown) [14b]", "Units": "%", "Reported": 13}
{"Molecule": "CCOC(=O)C1=C(C)Nc2nc3ccc(Br)cc3n2C1c1ccco1 (stereo not shown) [15q]", "Units": "%", "Reported": 22}
{"Molecule": "CCOC(=O)C1=C(C)Nc2nc3cc(F)ccc3n2C1c1ccsc1 (stereo not shown) [16g]", "Units": "%", "Reported": 1}
{"Molecule": "CC1=C(C(=O)OC(C)C)C(c2ccco2)n2c(nc3cc(Br)c(Br)cc32)N1 (stereo not shown) [14r]", "Units": "%", "Reported": 11}
{"Molecule": "CC1=C(C(=O)OC(C)C)C(c2ccoc2)n2c(nc3cc(Br)ccc32)N1 (stereo not shown) [16t]", "Units": "%", "Reported": 2}
{"Molecule": "CC1=C(C(=O)OC(C)C)C(c2ccsc2)n2c(nc3cc(Br)c(Br)cc32)N1 (stereo not shown) [14x]", "Units": "%", "Reported": 4}
{"Molecule": "CCOC(=O)C1=C(C)Nc2nc3cc(Cl)c(Cl)cc3n2C1c1ccsc1 (stereo not shown) [14o]", "Units": "%", "Reported": 5}
{"Molecule": "CC1=C(C(=O)OC(C)C)C(c2ccoc2)n2c(nc3cc(Cl)c(Cl)cc32)N1 (stereo not shown) [14l]", "Units": "%", "Reported": 4}
{"Molecule": "CC1=C(C(=O)OC(C)C)C(c2ccsc2)n2c(nc3cc(F)c(F)cc32)N1 (stereo not shown) [14h]", "Units": "%", "Reported": 1}
{"Molecule": "CCOC(=O)C1=C(C)Nc2nc3cc(Br)ccc3n2C1c1cccs1 (stereo not shown) [16u]", "Units": "%", "Reported": 6}
{"Molecule": "CCOC(=O)C1=C(C)Nc2nc3ccc(Cl)cc3n2C1c1ccoc1 (stereo not shown) [15k]", "Units": "%", "Reported": 22}
{"Molecule": "CCOC(=O)C1=C(C)Nc2nc3ccc(Br)cc3n2C1c1ccsc1 (stereo not shown) [15w]", "Units": "%", "Reported": 4}
{"Molecule": "CC1=C(C(=O)OC(C)C)C(c2cccs2)n2c(nc3ccc(F)cc32)N1 (stereo not shown) [15f]", "Units": "%", "Reported": 11}
{"Molecule": "CC1=C(C(=O)OC(C)C)C(c2cocn2)n2c(nc3ccc(Cl)cc32)N1 (stereo not shown) [17d]", "Units": "%", "Reported": 27}
{"Molecule": "CC1=C(C(=O)OC(C)C)[C@H](c2ccoc2)n2c(nc3cc(Cl)ccc32)N1 [(S)-16l]", "Units": "%", "Reported": 24}

###

In this section we review reported % at 1 μM hA3 (percentage displacement of specific binding) values for a set of compounds.
molecular target: hA3AR (Homo sapiens, UniProt P0DMS8); construct: expressed in transfected cells; host or cells: HeLa (HeLa-A3) cell membranes; experiment: Radioligand binding competition, [3H]NECA, membranes from HeLa-A3 cells; conditions: 1 μM, [3H]NECA, human HeLa cells, n = 2
Sequence (P0DMS8 whole entry): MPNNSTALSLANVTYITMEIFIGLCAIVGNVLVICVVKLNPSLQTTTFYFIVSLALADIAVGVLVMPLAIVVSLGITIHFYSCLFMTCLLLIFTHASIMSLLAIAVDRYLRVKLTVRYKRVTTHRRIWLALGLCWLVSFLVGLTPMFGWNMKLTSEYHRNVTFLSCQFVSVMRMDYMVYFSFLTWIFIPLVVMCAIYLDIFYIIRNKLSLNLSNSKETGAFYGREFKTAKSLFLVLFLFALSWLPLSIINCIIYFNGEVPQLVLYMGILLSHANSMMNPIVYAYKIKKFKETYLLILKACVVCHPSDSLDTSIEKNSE
Property name: % at 1 μM hA3 (percentage displacement of specific binding) (%)

{"Compound": "CC1=C(C(=O)OC(C)C)C(c2ccsc2)n2c(nc3cc(Br)c(Br)cc32)N1 (centres unmarked) [14x]", "Reported": 8}
{"Compound": "CC1=C(C(=O)OC(C)C)C(c2cccs2)n2c(nc3cc(Cl)c(Cl)cc32)N1 (centres unmarked) [14n]", "Reported": 9}
{"Compound": "CC1=C(C(=O)OC(C)C)C(c2cccs2)n2c(nc3cc(F)c(F)cc32)N1 (centres unmarked) [14f]", "Reported": 10}
{"Compound": "CC1=C(C(=O)OC(C)C)C(c2cccs2)n2c(nc3ccc(Cl)cc32)N1 (centres unmarked) [15n]", "Reported": 1}
{"Compound": "CCOC(=O)C1=C(C)Nc2nc3ccc(Br)cc3n2C1c1ccco1 (centres unmarked) [15q]", "Reported": 5}

###

molecular target: hA1AR (Homo sapiens); assay: Radioligand binding competition, [3H]DPCPX, membranes from CHO-A1 cells; details: 1 μM, [3H]DPCPX, human CHO cells, n = 2
Below, each entry is listed alongside its reported % at 1 μM hA1 (percentage displacement of specific binding).
Property name: % at 1 μM hA1 (percentage displacement of specific binding) (%)

{"Compound": "CC1=C(C(=O)OC(C)C)C(c2cccs2)n2c(nc3ccc(Cl)cc32)N1 (stereo not shown) [15n]", "Reported": 1}
{"Compound": "CC1=C(C(=O)OC(C)C)[C@@H](c2ccco2)n2c(nc3cc(Cl)ccc32)N1 [(S)-16j]", "Reported": 48}
{"Compound": "CCOC(=O)C1=C(C)Nc2nc3ccc(F)cc3n2C1c1cocn1 (stereo not shown) [17a]", "Reported": 43}
{"Compound": "CCOC(=O)C1=C(C)Nc2nc3ccc(F)cc3n2C1c1ccsc1 (stereo not shown) [15g]", "Reported": 7}
{"Compound": "CCOC(=O)C1=C(C)Nc2nc3ccc(Cl)cc3n2C1c1ccco1 (stereo not shown) [15i]", "Reported": 26}
{"Compound": "CCOC(=O)C1=C(C)Nc2nc3cc(F)ccc3n2C1c1cccs1 (stereo not shown) [16e]", "Reported": 1}
{"Compound": "CC1=C(C(=O)OC(C)C)C(c2ccsc2)n2c(nc3ccc(F)cc32)N1 (stereo not shown) [15h]", "Reported": 1}
{"Compound": "CCOC(=O)C1=C(C)Nc2nc3cc(F)ccc3n2C1c1cocn1 (stereo not shown) [18a]", "Reported": 25}
{"Compound": "CCOC(=O)C1=C(C)Nc2nc3cc(Cl)c(Cl)cc3n2C1c1ccco1 (stereo not shown) [14i]", "Reported": 2}
{"Compound": "CCOC(=O)C1=C(C)Nc2nc3cc(Br)ccc3n2C1c1ccoc1 (stereo not shown) [16s]", "Reported": 1}

###

Target: UniProt:P30542
Sequence (P30542 1-326): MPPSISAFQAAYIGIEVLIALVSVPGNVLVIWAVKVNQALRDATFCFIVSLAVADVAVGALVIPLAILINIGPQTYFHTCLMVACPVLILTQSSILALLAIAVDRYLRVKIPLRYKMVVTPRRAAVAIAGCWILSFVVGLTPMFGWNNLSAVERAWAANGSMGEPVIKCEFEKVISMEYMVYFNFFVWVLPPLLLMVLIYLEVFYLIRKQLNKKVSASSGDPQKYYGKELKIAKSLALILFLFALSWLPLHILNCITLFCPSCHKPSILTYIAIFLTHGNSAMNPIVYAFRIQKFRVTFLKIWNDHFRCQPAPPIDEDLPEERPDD
Test: Radioligand binding competition, [3H]DPCPX, membranes from CHO-A1 cells
Conditions: 1 μM, [3H]DPCPX, human CHO cells, n = 2
% at 1 μM hA1 (percentage displacement of specific binding) vs 20%: less than gives condition met; not less than gives condition not met.

{"Compound": "CCOC(=O)C1=C(C)Nc2nc3cc(F)ccc3n2C1c1ccoc1 (stereo not drawn) [16c]", "Classification": "condition not met"}
{"Compound": "CCOC(=O)C1=C(C)Nc2nc3cc(F)c(F)cc3n2C1c1cccs1 (stereo not drawn) [14e]", "Classification": "condition met"}
{"Compound": "CC1=C(C(=O)OC(C)C)[C@@H](c2ccoc2)n2c(nc3cc(Cl)ccc32)N1 [(R)-16l]", "Classification": "condition not met"}
{"Compound": "CCOC(=O)C1=C(C)Nc2nc3cc(F)c(F)cc3n2C1c1ccoc1 (stereo not drawn) [14c]", "Classification": "condition not met"}
{"Compound": "CC1=C(C(=O)OC(C)C)C(c2ccsc2)n2c(nc3cc(Cl)ccc32)N1 (stereo not drawn) [16p]", "Classification": "condition met"}
{"Compound": "CC1=C(C(=O)OC(C)C)C(c2ccoc2)n2c(nc3cc(F)c(F)cc32)N1 (stereo not drawn) [14d]", "Classification": "condition met"}
{"Compound": "CC1=C(C(=O)OC(C)C)C(c2ccco2)n2c(nc3cc(Br)ccc32)N1 (stereo not drawn) [16r]", "Classification": "condition not met"}
{"Compound": "CCOC(=O)C1=C(C)Nc2nc3cc(Cl)ccc3n2[C@@H]1c1cocn1 [(S)-18c]", "Classification": "condition not met"}
{"Compound": "CCOC(=O)C1=C(C)Nc2nc3cc(Cl)ccc3n2C1c1cocn1 (stereo not drawn) [18c]", "Classification": "condition not met"}
